Target: T1, PPR2.0 t15 (synthetic)
T1 chain: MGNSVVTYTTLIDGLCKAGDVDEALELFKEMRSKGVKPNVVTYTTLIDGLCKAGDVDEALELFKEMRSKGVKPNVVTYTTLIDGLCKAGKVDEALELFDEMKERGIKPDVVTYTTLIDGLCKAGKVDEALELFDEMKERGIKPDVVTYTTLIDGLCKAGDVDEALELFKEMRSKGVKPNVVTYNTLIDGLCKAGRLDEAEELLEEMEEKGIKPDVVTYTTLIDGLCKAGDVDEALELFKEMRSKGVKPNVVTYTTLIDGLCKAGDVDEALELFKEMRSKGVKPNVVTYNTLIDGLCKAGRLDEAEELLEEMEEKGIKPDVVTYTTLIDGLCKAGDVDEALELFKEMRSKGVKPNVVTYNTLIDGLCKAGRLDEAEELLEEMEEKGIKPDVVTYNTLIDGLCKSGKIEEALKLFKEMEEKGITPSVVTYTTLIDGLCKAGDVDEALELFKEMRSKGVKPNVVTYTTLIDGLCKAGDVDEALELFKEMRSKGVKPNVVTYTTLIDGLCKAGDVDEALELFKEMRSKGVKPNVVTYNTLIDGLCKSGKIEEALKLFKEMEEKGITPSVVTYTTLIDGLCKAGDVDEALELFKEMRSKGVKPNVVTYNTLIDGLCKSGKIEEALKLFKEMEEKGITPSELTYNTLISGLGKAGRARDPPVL
Assay: EMSA; 20 mM Tris-HCl pH 8.0, 150 mM NaCl, 0.5% NP-40, 1 mM DTT, 1 mM EDTA; 20 nM RNA
Details: tags: N-terminal SBP, C-terminal His6, kept; label: biotin
pKd: −log10 of the molar value.
readout: pKd

GACAUGCAAGGAUAAUAUCAAACACGACUG (ssRNA) [Probe_t15] :: 7.39
